Tested on: MOLT-4 leukemia
Assay explanation: NCI-60 one-dose screen, 48 h (100 = growth as untreated, 0 = no growth, -100 = all killed)
Settings: 10 µM unless noted
Compounds without any hit were thinned out: in the full panel of roughly 83,000, 20% have a hit.
Measure: growth (%)

Compound | Recorded result
O=C(Cc1ccccc1)Nc1nnc(NC2CCN(c3nnc(NC(=O)Cc4ccccc4)s3)CC2)s1 | 91.3
Cc1ccccc1Nc1nc2nonc2nc1Nc1cccc(C)c1C | 53.5
CCN(CC)CCOc1ccc(/C(=C(\C)c2ccc(Cl)cc2)c2ccc(Cl)cc2)cc1 | 50.7
CSc1nc2ncnc(SC)c2[nH]1 | 98.9
CN1CCN(CC(=O)Nc2ccc(-c3nc4ccccc4s3)cc2)CC1 | 78
CC(=Nc1ccccc1)C1=C(O)C(Cc2ccc(O)cc2)NC1=O (stereo not given) | -3.04
COc1cc2c(cc1OCCCN1Cc3ccc(OCCCCC(=O)N4CCC(CCN5CCCC5)CC4)cc3C1)N=C(N)C21CCCC1 | 44.8
Cc1cc(O)c2c(c1)C1OC(=O)CCCCCN1C1=C2C(=O)c2cccc(OC3CC(O)C(O)C(C)O3)c2C1=O (stereo not given) | 63.3
CO[C@H]1C[C@@H]2CC[C@@H](C)[C@@](O)(O2)C(=O)C(=O)N2CCCC[C@H]2C(=O)O[C@H]([C@H](C)C[C@@H]2CC[C@@H](OC(=O)C(C)(CO)CO)[C@H](OC)C2)CC(=O)[C@H](C)/C=C(\C)[C@@H](O)[C@@H](OC)C(=O)[C@H](C)C[C@H](C)\C=C/C=C/C=C/1C | 0.877
C[C@@H](Oc1cc(-c2cnn(C3CCNCC3)c2)cnc1N)c1c(Cl)ccc(F)c1Cl | -34.5
CCCC(=O)OCC1OC(n2cnc3c(=S)nc[nH]c32)C(OC(=O)CCC)C1OC(=O)CCC (stereo not given) | 18.6
O=C(Cc1ccc(-c2ccc(OCCN3CCOCC3)cc2)cn1)NCc1ccccc1 | 18.1
Cc1cc(C(=O)Nc2cc(Oc3ccc4nc(NC(=O)C5CC5)cn4n3)ccc2C)n(C)n1 | 32.6
CCc1nc2cc(F)c(/C=C/C(=O)NO)cc2c(=O)n1CCc1ccccc1 | 3.34
CO[C@H](C(=O)N[C@@H](CCCCNC(=O)OCc1ccccc1)C(=O)OC(C)(C)C)[C@@H]1Cc2cc3cc(OC4CC(OC5CC(O)C(O)C(C)O5)C(O)C(C)O4)c(C)c(O)c3c(O)c2C(=O)[C@H]1OC1CC(OC2CC(OC3CC(C)(O)C(O)C(C)O3)C(O)C(C)O2)C(O)C(C)O1 (stereo not given in full) | -12.6
Cc1cc(C2(c3ccc(O)c(C)c3)OS(=O)(=O)c3ccccc32)ccc1O | 91.1
CCOC(=O)Sc1ncnc2nc[nH]c12 | 4.03
CCc1nc2cc(/C=C/C(=O)NO)ccc2c(=O)n1CCc1ccc(F)cc1 | -3.04
NC(=O)Nc1cc(-c2cccc(F)c2)sc1C(=O)N[C@H]1CCCNC1 | 2.79
COc1ccc(C(=O)N2c3ccccc3Sc3ccccc32)c(F)c1 | 27.1
CCN1CCN(c2cc(C)nc(N(CCCNc3ccnc4cc(Cl)ccc34)Cc3cccs3)n2)CC1 | 5.24
Nc1c2c(c(O)c3c1=C(CO)C=N3)=NCCS2=O (stereo not given) | -33.8
CCN(CCO)CCCOc1ccc2c(Nc3cc(CC(=O)Nc4cccc(F)c4)[nH]n3)ncnc2c1 | 36.3
COC(=O)[C@@H](C)CNS(=O)(=O)N(c1cc(C(F)(F)F)cc(C(F)(F)F)c1)C1CCN(Cc2ccc(F)cc2)CC1 | 58.2
COc1ccc(C(=O)c2cc(OC)c(OC)c(OC)c2)cc1/C=C/C(=O)c1ccc(F)cc1 | 0.641
CC/C=C\C[C@H]1C/C=C2/C(=O)C=C[C@@H]2C/C=C\CCCC(=O)O1 | -4.8
CC(C)(O)CC(=O)NCCn1ccc2ncnc(Nc3ccc(Oc4cccc(C(F)(F)F)c4)c(Cl)c3)c21 | 7.32
COc1cccc2cc(-c3nc(C4CCC(C(=O)O)CC4)n4ncnc(N)c34)[nH]c12 (stereo not given) | 15.2
CC[n+]1c(/C=C/C=C2\N(C)c3ccccc3C2(C)C)sc2ccccc21 | -19.1
Cc1ccc(-n2nc(C(C)(C)C)cc2NC(=O)NCc2cc(F)ccc2Oc2ccc3c(cnn3CCO)c2)cc1 | 3.32
Cc1cn(-c2cc(NC(=O)c3ccc(C)c(Nc4nccc(-c5cccnc5)n4)c3)cc(C(F)(F)F)c2)cn1 | 42.9
O=c1sn(-c2cccc3ccccc23)c(=O)n1Cc1ccccc1 | 39.1
C=CC(=O)Nc1cc2c(Nc3ccc(F)c(Cl)c3)ncnc2cc1C#CC(C)(C)N1CCN(C)CC1 | -23.1
CCNC(=O)C#Cc1ccc2c(C(=Nc3ccc(CN(C)C)cc3)c3ccccc3)c(O)[nH]c2c1 | 10.9
O=C(Cc1ccc(/C=C/C(=O)c2ncc[nH]2)cc1)Nc1ccc(Br)cc1 | 2.86

Recorded values, source PubChem BioAssay (NCI).
